# ASSAY TARGET: human ether-à-go-go-related gene (hERG) potassium channel (human, UniProt Q12809)
# Sequence (Q12809 whole entry, looked up): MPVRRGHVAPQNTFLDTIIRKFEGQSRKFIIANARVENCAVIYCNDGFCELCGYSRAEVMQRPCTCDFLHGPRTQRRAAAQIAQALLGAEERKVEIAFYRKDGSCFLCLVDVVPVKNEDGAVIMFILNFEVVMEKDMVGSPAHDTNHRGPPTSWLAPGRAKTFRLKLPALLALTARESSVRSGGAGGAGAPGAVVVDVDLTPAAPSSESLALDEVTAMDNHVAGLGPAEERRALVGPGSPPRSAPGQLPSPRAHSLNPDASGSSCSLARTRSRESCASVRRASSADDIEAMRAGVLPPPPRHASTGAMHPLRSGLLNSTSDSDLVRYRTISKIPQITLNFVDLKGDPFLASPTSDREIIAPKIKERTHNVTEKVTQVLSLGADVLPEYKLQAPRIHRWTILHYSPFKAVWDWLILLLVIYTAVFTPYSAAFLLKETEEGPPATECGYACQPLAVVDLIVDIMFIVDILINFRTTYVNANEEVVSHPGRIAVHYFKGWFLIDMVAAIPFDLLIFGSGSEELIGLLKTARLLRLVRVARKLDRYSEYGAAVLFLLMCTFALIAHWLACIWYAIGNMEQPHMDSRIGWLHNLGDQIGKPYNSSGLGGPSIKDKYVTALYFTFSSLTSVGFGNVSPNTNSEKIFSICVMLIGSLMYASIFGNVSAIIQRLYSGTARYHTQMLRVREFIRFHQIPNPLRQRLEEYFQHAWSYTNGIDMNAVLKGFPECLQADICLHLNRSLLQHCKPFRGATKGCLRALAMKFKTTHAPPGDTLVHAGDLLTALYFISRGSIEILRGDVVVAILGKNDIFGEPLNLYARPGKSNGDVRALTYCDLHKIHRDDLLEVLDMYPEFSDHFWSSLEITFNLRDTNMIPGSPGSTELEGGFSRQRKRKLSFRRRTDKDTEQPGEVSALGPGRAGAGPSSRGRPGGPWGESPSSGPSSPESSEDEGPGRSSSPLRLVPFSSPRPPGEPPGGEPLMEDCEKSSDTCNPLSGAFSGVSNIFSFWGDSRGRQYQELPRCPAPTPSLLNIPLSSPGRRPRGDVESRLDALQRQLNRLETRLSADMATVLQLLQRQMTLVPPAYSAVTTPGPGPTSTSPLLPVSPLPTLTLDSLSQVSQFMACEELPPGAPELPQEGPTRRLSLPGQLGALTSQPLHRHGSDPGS
# ASSAY METHOD TEXT: primary screen, population patch clamp on CHO cells stably expressing hERG; higher = less effect of the substance
In all, about 310,000 compounds went through this assay and about 2,200 (0.71%) showed an effect of 50% or more. Effects have a minus sign here. This is one part of a sample in which strong results are shown more often than they occur.
Quick list: hERG current change (%, negative = inhibition) at 1uM per entry.
Reply with just the number (in %).

INSERT INTO measurements (compound, reported_result) VALUES
  ('CC(=O)Nc1ccc(CN2CCC(Oc3ccc(C(=O)N4CCCC4)cc3)CC2)cc1', -6.27),
  ('CC(C)c1ccc(CN2CCC(Oc3ccc(C(=O)N4CCCC4)cc3)CC2)cc1', -33.7),
  ('CCc1ccc(CN2CCC(Oc3ccc(C(=O)N4CCCC4)cc3)CC2)cc1', -77.5),
  ('COc1ccc(S(=O)(=O)Nc2ccc(Cc3ccncc3)cc2)cc1OC', 7.28),
  ('O=C(NC1CCCC1)C(c1ccccn1)N(Cc1ccccc1F)C(=O)c1csnn1 (stereo not shown)', 10.7);

Now for a further compound.
The compound O=C(CCn1c(=O)sc2ccccc21)Nc1ccon1 , tested on human ether-à-go-go-related gene (hERG) potassium channel (human, UniProt Q12809), showed hERG current change (%, negative = inhibition) at 1uM of 4.85

----------
Below, each entry is listed with its recorded hERG current change (%, negative = inhibition) at 1uM.
# ASSAY TARGET: human ether-à-go-go-related gene (hERG) potassium channel (human, UniProt Q12809)
# ASSAY METHOD TEXT: primary screen, population patch clamp on CHO cells stably expressing hERG; higher = less effect of the substance
Screen size: about 310,000 compounds; about 2,200 (0.71%) showed an effect of 50% or more. The effect is printed as a negative number. The list comes from a sample in which strong results are over-represented; it also holds close analogues and randomly drawn compounds.
Answer format: numeric, % implied, no suffix.

Solved cases (3 shown):
INSERT INTO assay_data (molecule, assay_target, reported_result) VALUES
  ('COCC(=O)N1CCN(c2ccc([N+](=O)[O-])cc2)CC1', 'human ether-à-go-go-related gene (hERG) potassium channel (human, UniProt Q12809)', -31.5),
  ('COc1ccc(CCC(=O)N2CCN(c3ccccc3)CC2)cc1OC', 'human ether-à-go-go-related gene (hERG) potassium channel (human, UniProt Q12809)', 13.5),
  ('CN(C)CCCN(C(=O)c1ccco1)c1nc2c(F)cccc2s1.Cl', 'human ether-à-go-go-related gene (hERG) potassium channel (human, UniProt Q12809)', -62.9);

hERG current change (%, negative = inhibition) at 1uM reading for COc1ccccc1/C=C/CN1CCC(CO)(Cc2ccccc2)CC1 : 0.366

Looking up COc1cc(CCC(=O)N2CCN(c3ccc([N+](=O)[O-])cc3)CC2)cc(OC)c1OC , I found its hERG current change (%, negative = inhibition) at 1uM recorded as -83.6

The molecule listed as CN(C)CCCN(C(=O)c1sc2ccccc2c1Cl)c1nc2c(F)cccc2s1.Cl has a reported hERG current change (%, negative = inhibition) at 1uM of 8.6

----------
# ASSAY TARGET: human ether-à-go-go-related gene (hERG) potassium channel (human, UniProt Q12809)
# ASSAY METHOD TEXT: primary screen, population patch clamp on CHO cells stably expressing hERG; higher = less effect of the substance
# From the text: Briefly, Chinese hamster ovary (CHO) cells stably expressing the hERG channel were dislodged from tissue culture flasks and dispensed into PPC plates. […] Small molecule effects on hERG current density were quantified by […].
Hit rate of the full screen: of about 310,000 compounds, about 2,200 (0.71%) showed an effect of 50% or more. The effect is printed as a negative number. The list comes from a sample in which strong results are over-represented; it also holds close analogues and randomly drawn compounds.
Overview of recorded hERG current change (%, negative = inhibition) at 1uM for various compounds
Report the figure in % without appending any unit label.

// recorded hERG current change (%, negative = inhibition) at 1uM for CCn1nc(C(=O)NNC(=O)c2ccccc2OCc2c(C)noc2C)c2ccccc2c1=O : 9.55

compound N#CCCN=C(NS(=O)(=O)c1ccccc1)c1ccccc1 , hERG current change (%, negative = inhibition) at 1uM observed: 2.49

So for C/C(=N\NC(=O)CNC(=O)C(c1ccccc1)c1ccccc1)c1ccc(C(C)(C)C)cc1 , the logged hERG current change (%, negative = inhibition) at 1uM turned out to be 2.98

Cc1cc(C)n2c(Br)c(CSc3nc4ccccc4o3)nc2n1 has a reported hERG current change (%, negative = inhibition) at 1uM of -53
